systemUnderTest: recombinant human PKM2 (Homo sapiens, UniProt P14618)
Construct: His (N); purchased R&D Systems
Sequence (P14618 2-531 limits assumed): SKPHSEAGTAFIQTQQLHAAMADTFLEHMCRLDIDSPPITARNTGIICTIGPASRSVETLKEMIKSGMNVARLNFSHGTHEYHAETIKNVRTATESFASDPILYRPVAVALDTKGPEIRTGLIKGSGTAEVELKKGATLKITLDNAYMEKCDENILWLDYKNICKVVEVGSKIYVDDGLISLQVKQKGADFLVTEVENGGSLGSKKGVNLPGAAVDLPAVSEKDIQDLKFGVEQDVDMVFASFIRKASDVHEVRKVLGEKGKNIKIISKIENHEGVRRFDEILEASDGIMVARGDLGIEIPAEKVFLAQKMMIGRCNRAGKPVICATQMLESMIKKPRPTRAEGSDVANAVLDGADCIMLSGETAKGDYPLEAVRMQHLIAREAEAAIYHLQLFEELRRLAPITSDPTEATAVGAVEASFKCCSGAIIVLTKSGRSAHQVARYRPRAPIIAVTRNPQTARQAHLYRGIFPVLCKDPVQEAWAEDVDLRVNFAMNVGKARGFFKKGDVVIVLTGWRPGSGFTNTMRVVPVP
methodDescription: Human PKM2 activation assay (Kinase-Glo Plus luminescent detection of generated ATP)
Type: biochemical
measurementConditions: percentage activation normalised to DMSO vehicle (LOW) and 5 μM TEPP-46 (HIGH); read-out: hPKM2 Emax
valueKind: Emax (%)

N#Cc1sccc1Cn1ncc2cc(S(=O)(=O)c3ccccc3)ccc2c1=O :: 112
O=c1c2ccc(S(=O)(=O)c3ccc4c(c3)NCCO4)cc2cnn1Cc1cc[nH]n1 :: 105
COc1ccc(Cn2ncc3cc(S(=O)(=O)c4ccsc4C(N)=O)ccc3c2=O)cn1 :: 77
COc1ccc(S(=O)(=O)c2ccc3c(=O)n(Cc4ncccc4O)ncc3c2)cc1 :: 133
COc1ccc(Cn2ncc3cc(S(=O)(=O)c4ccc(C)cc4)ccc3c2=O)cn1 :: 90.4
NC(=O)c1c[nH]nc1Cn1ncc2cc(S(=O)(=O)c3ccccc3)ccc2c1=O :: 124
O=c1c2ccc(S(=O)(=O)c3ccc4[nH]ccc4c3)cc2cnn1Cc1cc[nH]n1 :: 114
Cc1ccc(Cn2ncc3cc(S(=O)(=O)c4cn[nH]c4)ccc3c2=O)cn1 :: 104
Cc1cccc(Cn2ncc3cc(S(=O)(=O)c4csc([C@@H](C)O)n4)ccc3c2=O)n1 (single isomer, unassigned) :: 92.2
O=c1c2ccc(S(=O)(=O)c3ccccc3)cc2cnn1Cc1ccn(C(F)F)n1 :: 103
O=c1c2ccc(S(=O)(=O)c3ccccc3)cc2cnn1Cc1cc2ccccn2n1 :: 132
O=c1c2cnc(S(=O)(=O)c3cn[nH]c3)cc2cnn1Cc1ccc2c(n1)CCO2 :: 104
COc1ccc(S(=O)(=O)c2ccc3c(=O)n(Cc4cnccc4O)ncc3c2)cc1 :: 103
COc1ccc(S(=O)(=O)c2ccc3c(=O)n(Cc4ccc5c(c4)CCO5)ncc3c2)cc1 :: 87.9
COc1ccc(S(=O)(=O)c2ccc3c(=O)n(Cc4c(O)ccnc4O)ncc3c2)cc1 :: 104
COc1ccc(Cn2ncc3cc(S(=O)(=O)c4csc(C)n4)ccc3c2=O)cn1 :: 94.2
COc1ccc(S(=O)(=O)c2ccc3c(=O)n(Cc4ccc(OC)nc4O)ncc3c2)cc1 :: 96.5
